Biological target: D2R (Homo sapiens, UniProt P14416)
Sequence (P14416 whole entry): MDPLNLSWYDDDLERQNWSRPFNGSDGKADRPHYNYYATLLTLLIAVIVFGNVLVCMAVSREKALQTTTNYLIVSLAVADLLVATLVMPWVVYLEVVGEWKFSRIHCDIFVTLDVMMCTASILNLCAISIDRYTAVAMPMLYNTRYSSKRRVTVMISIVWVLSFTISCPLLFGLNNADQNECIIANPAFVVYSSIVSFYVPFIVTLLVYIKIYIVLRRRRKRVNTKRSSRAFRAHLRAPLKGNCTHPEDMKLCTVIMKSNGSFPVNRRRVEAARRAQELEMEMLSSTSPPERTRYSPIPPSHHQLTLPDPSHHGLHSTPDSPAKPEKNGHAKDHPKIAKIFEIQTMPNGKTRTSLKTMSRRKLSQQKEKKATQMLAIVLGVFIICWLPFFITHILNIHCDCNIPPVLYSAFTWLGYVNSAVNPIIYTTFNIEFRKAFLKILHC
Experiment: Radioligand binding assay, [3H]-raclopride displacement
Conditions: pKi D2, Table 1
pKi: −log10 of the molar value.
experimental_endpoint: pKi

[[record]]
compound = "Cc1ccc2[nH]cc(CCNCc3c[nH]c4ccccc34)c2c1 [Compound 2]"
value_operator = "<"
measured_result = 5.00

[[record]]
compound = "Clc1ccc2[nH]cc(CNCCc3c[nH]c4ccccc34)c2c1 [Compound 11]"
value_operator = "="
measured_result = 5.68

[[record]]
compound = "Clc1ccc2c(CCNCc3c[nH]c4c(Cl)cccc34)c[nH]c2c1 [Compound 22]"
value_operator = "="
measured_result = 5.30

[[record]]
compound = "Ic1ccc2[nH]cc(CNCCc3c[nH]c4ccccc34)c2c1 [Compound 12]"
value_operator = "="
measured_result = 5.68


----------
Biological target: Human Serotonin 5-HT6R (Homo sapiens)
Construct: host or cells: 1321N1 (frozen recombinant cells)
Sequence (P50406 whole entry): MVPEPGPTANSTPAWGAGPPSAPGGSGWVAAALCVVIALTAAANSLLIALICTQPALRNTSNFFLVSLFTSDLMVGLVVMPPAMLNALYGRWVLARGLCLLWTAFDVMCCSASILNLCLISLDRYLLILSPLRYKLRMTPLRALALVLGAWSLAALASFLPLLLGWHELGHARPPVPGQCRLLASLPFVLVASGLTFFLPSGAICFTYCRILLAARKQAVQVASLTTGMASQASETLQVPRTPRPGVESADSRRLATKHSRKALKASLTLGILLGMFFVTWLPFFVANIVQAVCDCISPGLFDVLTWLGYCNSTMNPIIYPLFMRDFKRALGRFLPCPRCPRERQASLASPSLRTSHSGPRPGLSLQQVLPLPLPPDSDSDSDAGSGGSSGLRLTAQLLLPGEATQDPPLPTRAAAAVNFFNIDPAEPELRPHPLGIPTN
Assay: 5-HT6R functional assay, agonistic mode (cAMP, 1321N1 cells)
Format: cell-based
Settings: agonistic mode; read-out: 5-HT6 EC50
experimental_endpoint: EC50 (nM)

[[record]]
chem_smiles = "Clc1ccc2c(CCNCc3c[nH]c4ccccc34)c[nH]c2c1"
target_entity = "Human Serotonin 5-HT6R (Homo sapiens)"
experimental_endpoint = "EC50"
measured_result = 157


----------
Target: 5-HT2AR (Homo sapiens, UniProt P28223)
Experiment: Radioligand binding assay, [3H]-ketanserin displacement
Design: host or cells: CHO-K1; membrane preparation
Details: Table 1; read-out: pKi 5-HT2A (converted)
experimental_endpoint: log10 of Ki (log10 of the value in nM)

[[record]]
chem_smiles = "COc1ccc2[nH]cc(CCNCc3c[nH]c4cc(Cl)ccc34)c2c1"
target_entity = "5-HT2AR (Homo sapiens, UniProt P28223)"
experimental_endpoint = "log10 of Ki"
measured_result = 2.24

[[record]]
chem_smiles = "Fc1ccc2[nH]cc(CNCCc3c[nH]c4ccccc34)c2c1"
target_entity = "5-HT2AR (Homo sapiens, UniProt P28223)"
experimental_endpoint = "log10 of Ki"
measured_result = 3.54

[[record]]
chem_smiles = "Fc1cccc2c(CNCCc3c[nH]c4ccccc34)c[nH]c12"
target_entity = "5-HT2AR (Homo sapiens, UniProt P28223)"
experimental_endpoint = "log10 of Ki"
measured_result = 3.09

[[record]]
chem_smiles = "Brc1cccc2c(CCNCc3c[nH]c4ccccc34)c[nH]c12"
target_entity = "5-HT2AR (Homo sapiens, UniProt P28223)"
experimental_endpoint = "log10 of Ki"
measured_result = 2.89

[[record]]
chem_smiles = "Oc1ccc2[nH]cc(CNCCc3c[nH]c4ccccc34)c2c1"
target_entity = "5-HT2AR (Homo sapiens, UniProt P28223)"
experimental_endpoint = "log10 of Ki"
measured_result = 3.29


----------
Biological target: 5-HT6R (Homo sapiens)
Assay: Radioligand binding assay, [3H]-LSD displacement
Conditions: Ki 5-HT6, Figure 8
Returns: string. Value is Satisfied if measured Ki is below 0.2 µM, and Not satisfied if it is greater than or equal to it.

[[record]]
molecule = "Clc1cccc2c(CCNCc3c[nH]c4ccccc34)c[nH]c12 [Compound 7]"
target_entity = "5-HT6R (Homo sapiens)"
assigned_label = "Satisfied"

[[record]]
molecule = "c1ccc(COc2cccc3c(CNCCc4c[nH]c5ccccc45)c[nH]c23)cc1 [Compound 19]"
target_entity = "5-HT6R (Homo sapiens)"
assigned_label = "Not satisfied"

[[record]]
molecule = "Fc1cccc2c(CCNCc3c[nH]c4ccccc34)c[nH]c12 [Compound 6]"
target_entity = "5-HT6R (Homo sapiens)"
assigned_label = "Satisfied"

[[record]]
molecule = "Clc1ccc2c(CNCCc3c[nH]c4ccccc34)c[nH]c2c1 [Compound 14]"
target_entity = "5-HT6R (Homo sapiens)"
assigned_label = "Satisfied"

[[record]]
molecule = "Fc1ccc2c(CNCCc3c[nH]c4ccccc34)c[nH]c2c1 [Compound 13]"
target_entity = "5-HT6R (Homo sapiens)"
assigned_label = "Not satisfied"


FYI, the data here is from paper PMC8347595.
